- System: S. faecalis ATCC 7080
- PROTOCOL DETAILS: In vitro antibacterial activity, standard agar-dilution test (MIC)
- Type: cell-based
- CONDITION DESCRIPTION: inoculum about 10^4 CFU/ml, 18-24 h at 37° C.
MEASURED ENDPOINT: MIC S. faecalis ATCC 7080 (µg/mL)

>  <MOLECULE>
CN(C)CCCCCNC(=O)C1NC(=O)C2NC(=O)C(NC(=O)C3NC(=O)C4NC(=O)C(Cc5ccc(c(Cl)c5)Oc5cc3cc(c5O)Oc3ccc(cc3Cl)C2O)NC(=O)C(N)c2ccc(O)c(c2)Oc2cc(O)cc4c2)c2ccc(O)c(c2)-c2c(O)cc(O)cc21 (centres unmarked)

>  <MIC S. faecalis ATCC 7080 (µg/mL)>
0.12

$$$$
>  <MOLECULE>
CCOC(=O)CNC(=O)C1NC(=O)C2NC(=O)C(NC(=O)C3NC(=O)C4NC(=O)C(Cc5ccc(c(Cl)c5)Oc5cc3cc(c5O)Oc3ccc(cc3Cl)C2OC2OC(CO)C(O)C(O)C2NC(C)=O)NC(=O)C(N)c2ccc(O)c(c2)Oc2cc(O)cc4c2)c2ccc(O)c(c2)-c2c(O)cc(O)cc21 (centres unmarked)

>  <MIC S. faecalis ATCC 7080 (µg/mL)>
1

$$$$
>  <MOLECULE>
NC1C(=O)NC2Cc3ccc(c(Cl)c3)Oc3cc4cc(c3O)Oc3ccc(cc3Cl)C(O)C3NC(=O)C(NC(=O)C4NC(=O)C(NC2=O)c2cc(O)cc(c2)Oc2cc1ccc2O)c1ccc(O)c(c1)-c1c(O)cc(O)cc1C(C(=O)NCCCCCC(=O)NC1C(O)OC(CO)C(O)C1O)NC3=O (centres unmarked)

>  <MIC S. faecalis ATCC 7080 (µg/mL)>
0.25

$$$$
>  <MOLECULE>
NC1C(=O)NC2Cc3ccc(c(Cl)c3)Oc3cc4cc(c3O)Oc3ccc(cc3Cl)C(O)C3NC(=O)C(NC(=O)C4NC(=O)C(NC2=O)c2cc(O)cc(c2)Oc2cc1ccc2O)c1ccc(O)c(c1)-c1c(O)cc(O)cc1C(C(=O)NCCN1CCCC1)NC3=O (centres unmarked)

>  <MIC S. faecalis ATCC 7080 (µg/mL)>
0.12

$$$$
>  <MOLECULE>
CCN1CCCC1CNC(=O)C1NC(=O)C2NC(=O)C(NC(=O)C3NC(=O)C4NC(=O)C(Cc5ccc(c(Cl)c5)Oc5cc3cc(c5O)Oc3ccc(cc3Cl)C2O)NC(=O)C(N)c2ccc(O)c(c2)Oc2cc(O)cc4c2)c2ccc(O)c(c2)-c2c(O)cc(O)cc21.Cl.Cl (centres unmarked)

>  <MIC S. faecalis ATCC 7080 (µg/mL)>
0.12

$$$$
>  <MOLECULE>
CC(=O)NC1C(OC2c3ccc(c(Cl)c3)Oc3cc4cc(c3O)Oc3ccc(cc3Cl)CC3NC(=O)C(N)c5ccc(O)c(c5)Oc5cc(O)cc(c5)C(NC3=O)C(=O)NC4C(=O)NC3C(=O)NC2C(=O)NC(C(=O)NCCN2CCOCC2)c2cc(O)cc(O)c2-c2cc3ccc2O)OC(CO)C(O)C1O (centres unmarked)

>  <MIC S. faecalis ATCC 7080 (µg/mL)>
0.5

$$$$
>  <MOLECULE>
NC1C(=O)NC2Cc3ccc(c(Cl)c3)Oc3cc4cc(c3O)Oc3ccc(cc3Cl)C(O)C3NC(=O)C(NC(=O)C4NC(=O)C(NC2=O)c2cc(O)cc(c2)Oc2cc1ccc2O)c1ccc(O)c(c1)-c1c(O)cc(O)cc1C(C(=O)N1CCOCC1)NC3=O (centres unmarked)

>  <MIC S. faecalis ATCC 7080 (µg/mL)>
0.12

$$$$
>  <MOLECULE>
Cl.Cl.NC1C(=O)NC2Cc3ccc(c(Cl)c3)Oc3cc4cc(c3O)Oc3ccc(cc3Cl)C(O)C3NC(=O)C(NC(=O)C4NC(=O)C(NC2=O)c2cc(O)cc(c2)Oc2cc1ccc2O)c1ccc(O)c(c1)-c1c(O)cc(O)cc1C(C(=O)NC1CN2CCC1CC2)NC3=O (centres unmarked)

>  <MIC S. faecalis ATCC 7080 (µg/mL)>
0.12

$$$$

====

- PROTOCOL DETAILS: Isoelectric point (pI) by isoelectrofocusing with bioautography detection
- Type: physicochemical
- CONDITION DESCRIPTION: IEF technique, polyacrylamide gel
MEASURED ENDPOINT: Isoelectric point (pI)

>  <MOLECULE>
CN1CCN(C(=O)C2NC(=O)C3NC(=O)C(NC(=O)C4NC(=O)C5NC(=O)C(Cc6ccc(c(Cl)c6)Oc6cc4cc(c6O)Oc4ccc(cc4Cl)C3O)NC(=O)C(N)c3ccc(O)c(c3)Oc3cc(O)cc5c3)c3ccc(O)c(c3)-c3c(O)cc(O)cc32)CC1 (stereo not shown)

>  <MEASURED ENDPOINT>
Isoelectric point (pI)

>  <MEASURED NUMBER>
8.0

$$$$
>  <MOLECULE>
CC(=O)NC1C(OC2c3ccc(c(Cl)c3)Oc3cc4cc(c3O)Oc3ccc(cc3Cl)CC3NC(=O)C(N)c5ccc(O)c(c5)Oc5cc(O)cc(c5)C(NC3=O)C(=O)NC4C(=O)NC3C(=O)NC2C(=O)NC(C(=O)NCCN2CCOCC2)c2cc(O)cc(O)c2-c2cc3ccc2O)OC(CO)C(O)C1O (stereo not shown)

>  <MEASURED ENDPOINT>
Isoelectric point (pI)

>  <MEASURED NUMBER>
8.0

$$$$
>  <MOLECULE>
NCCCCC(NC(=O)C1NC(=O)C2NC(=O)C(NC(=O)C3NC(=O)C4NC(=O)C(Cc5ccc(c(Cl)c5)Oc5cc3cc(c5O)Oc3ccc(cc3Cl)C2O)NC(=O)C(N)c2ccc(O)c(c2)Oc2cc(O)cc4c2)c2ccc(O)c(c2)-c2c(O)cc(O)cc21)C(=O)O (stereo not shown)

>  <MEASURED ENDPOINT>
Isoelectric point (pI)

>  <MEASURED NUMBER>
7.8

$$$$
>  <MOLECULE>
CN(C)CCCNC(=O)C1NC(=O)C2NC(=O)C(NC(=O)C3NC(=O)C4NC(=O)C(Cc5ccc(c(Cl)c5)Oc5cc3cc(c5O)Oc3ccc(cc3Cl)C2O)NC(=O)C(N)c2ccc(O)c(c2)Oc2cc(O)cc4c2)c2ccc(O)c(c2)-c2c(O)cc(O)cc21 (stereo not shown)

>  <MEASURED ENDPOINT>
Isoelectric point (pI)

>  <MEASURED NUMBER>
8.9

$$$$

====

- Tested on: S. faecalis ATCC 7080
- PROTOCOL DETAILS: In vitro antibacterial activity, standard agar-dilution test (MIC)
- Assay type: cell-based
- CONDITION DESCRIPTION: inoculum about 10^4 CFU/ml, 18-24 h at 37° C.
MEASURED ENDPOINT: MIC S. faecalis ATCC 7080 (µg/mL)

>  <COMPOUND>
NC1C(=O)NC2Cc3ccc(c(Cl)c3)Oc3cc4cc(c3O)Oc3ccc(cc3Cl)C(O)C3NC(=O)C(NC(=O)C4NC(=O)C(NC2=O)c2cc(O)cc(c2)Oc2cc1ccc2O)c1ccc(O)c(c1)-c1c(O)cc(O)cc1C(C(=O)N1CCN(c2ccccn2)CC1)NC3=O (stereo not shown)

>  <QUANTITY UNIT>
µg/mL

>  <MIC S. faecalis ATCC 7080>
0.12

$$$$

(I) CN(C)CCCCCCCNC(=O)C1NC(=O)C2NC(=O)C(NC(=O)C3NC(=O)C4NC(=O)C(Cc5ccc(c(Cl)c5)Oc5cc3cc(c5O)Oc3ccc(cc3Cl)C2O)NC(=O)C(N)c2ccc(O)c(c2)Oc2cc(O)cc4c2)c2ccc(O)c(c2)-c2c(O)cc(O)cc21 (stereo not shown)
(II) CCCCN(CCCC)CCCNC(=O)C1NC(=O)C2NC(=O)C(NC(=O)C3NC(=O)C4NC(=O)C(Cc5ccc(c(Cl)c5)Oc5cc3cc(c5O)Oc3ccc(cc3Cl)C2O)NC(=O)C(N)c2ccc(O)c(c2)Oc2cc(O)cc4c2)c2ccc(O)c(c2)-c2c(O)cc(O)cc21 (stereo not shown)
Q. Consider entries I and II . Which has the numerically lower MIC S. faecalis ATCC 7080? Write down the label attached to your selection.
A. I

====

- Test system: S. faecalis ATCC 7080
- PROTOCOL DETAILS: In vitro antibacterial activity, standard agar-dilution test (MIC)
- Assay type: cell-based
- CONDITION DESCRIPTION: inoculum about 10^4 CFU/ml, 18-24 h at 37° C.
- Procedure: The culture medium ISOSENSITEST BROTH (Oxoid) and the colture medium TODD-[…] BROTH (Difco) are used for growing staphylococci and streptococci, respectively. Broth cultures are diluted so that the final inoculum is about 10^4 colony forming units/ml (CFU/ml).
MEASURED ENDPOINT: MIC S. faecalis ATCC 7080 (mg/L)

>  <COMPOUND>
NCCCCCCNC(=O)C1NC(=O)C2NC(=O)C(NC(=O)C3NC(=O)C4NC(=O)C(Cc5ccc(c(Cl)c5)Oc5cc3cc(c5O)Oc3ccc(cc3Cl)C2O)NC(=O)C(N)c2ccc(O)c(c2)Oc2cc(O)cc4c2)c2ccc(O)c(c2)-c2c(O)cc(O)cc21 (stereo not shown)

>  <MEASURED ENDPOINT>
MIC S. faecalis ATCC 7080

>  <QUANTITY UNIT>
mg/L

>  <MEASURED NUMBER>
0.12

$$$$
>  <COMPOUND>
CN1CCN(C(=O)C2NC(=O)C3NC(=O)C(NC(=O)C4NC(=O)C5NC(=O)C(Cc6ccc(c(Cl)c6)Oc6cc4cc(c6O)Oc4ccc(cc4Cl)C3O)NC(=O)C(N)c3ccc(O)c(c3)Oc3cc(O)cc5c3)c3ccc(O)c(c3)-c3c(O)cc(O)cc32)CC1 (stereo not shown)

>  <MEASURED ENDPOINT>
MIC S. faecalis ATCC 7080

>  <QUANTITY UNIT>
mg/L

>  <MEASURED NUMBER>
0.12

$$$$
>  <COMPOUND>
COC(=O)C(CCCCN)NC(=O)C1NC(=O)C2NC(=O)C(NC(=O)C3NC(=O)C4NC(=O)C(Cc5ccc(c(Cl)c5)Oc5cc3cc(c5O)Oc3ccc(cc3Cl)C2O)NC(=O)C(N)c2ccc(O)c(c2)Oc2cc(O)cc4c2)c2ccc(O)c(c2)-c2c(O)cc(O)cc21.Cl.Cl (stereo not shown)

>  <MEASURED ENDPOINT>
MIC S. faecalis ATCC 7080

>  <QUANTITY UNIT>
mg/L

>  <MEASURED NUMBER>
0.12

$$$$
>  <COMPOUND>
CN(C)CCCCNC(=O)C1NC(=O)C2NC(=O)C(NC(=O)C3NC(=O)C4NC(=O)C(Cc5ccc(c(Cl)c5)Oc5cc3cc(c5O)Oc3ccc(cc3Cl)C2O)NC(=O)C(N)c2ccc(O)c(c2)Oc2cc(O)cc4c2)c2ccc(O)c(c2)-c2c(O)cc(O)cc21.O=C(O)C(F)(F)F.O=C(O)C(F)(F)F (stereo not shown)

>  <MEASURED ENDPOINT>
MIC S. faecalis ATCC 7080

>  <QUANTITY UNIT>
mg/L

>  <MEASURED NUMBER>
0.12

$$$$
>  <COMPOUND>
NCCCCC(NC(=O)C1NC(=O)C2NC(=O)C(NC(=O)C3NC(=O)C4NC(=O)C(Cc5ccc(c(Cl)c5)Oc5cc3cc(c5O)Oc3ccc(cc3Cl)C2O)NC(=O)C(N)c2ccc(O)c(c2)Oc2cc(O)cc4c2)c2ccc(O)c(c2)-c2c(O)cc(O)cc21)C(=O)O (stereo not shown)

>  <MEASURED ENDPOINT>
MIC S. faecalis ATCC 7080

>  <QUANTITY UNIT>
mg/L

>  <MEASURED NUMBER>
0.12

$$$$
>  <COMPOUND>
CN(C)CCCNC(=O)C1NC(=O)C2NC(=O)C(NC(=O)C3NC(=O)C4NC(=O)C(Cc5ccc(c(Cl)c5)Oc5cc3cc(c5O)Oc3ccc(cc3Cl)C2O)NC(=O)C(N)c2ccc(O)c(c2)Oc2cc(O)cc4c2)c2ccc(O)c(c2)-c2c(O)cc(O)cc21 (stereo not shown)

>  <MEASURED ENDPOINT>
MIC S. faecalis ATCC 7080

>  <QUANTITY UNIT>
mg/L

>  <MEASURED NUMBER>
0.12

$$$$
>  <COMPOUND>
CN(C)CCNC(=O)C1NC(=O)C2NC(=O)C(NC(=O)C3NC(=O)C4NC(=O)C(Cc5ccc(c(Cl)c5)Oc5cc3cc(c5O)Oc3ccc(cc3Cl)C2O)NC(=O)C(N)c2ccc(O)c(c2)Oc2cc(O)cc4c2)c2ccc(O)c(c2)-c2c(O)cc(O)cc21.Cl.Cl (stereo not shown)

>  <MEASURED ENDPOINT>
MIC S. faecalis ATCC 7080

>  <QUANTITY UNIT>
mg/L

>  <MEASURED NUMBER>
0.12

$$$$
>  <COMPOUND>
NC1C(=O)NC2Cc3ccc(c(Cl)c3)Oc3cc4cc(c3O)Oc3ccc(cc3Cl)C(O)C3NC(=O)C(NC(=O)C4NC(=O)C(NC2=O)c2cc(O)cc(c2)Oc2cc1ccc2O)c1ccc(O)c(c1)-c1c(O)cc(O)cc1C(C(=O)NCCN1CCOCC1)NC3=O (stereo not shown)

>  <MEASURED ENDPOINT>
MIC S. faecalis ATCC 7080

>  <QUANTITY UNIT>
mg/L

>  <MEASURED NUMBER>
0.12

$$$$
>  <COMPOUND>
CCCCOC(=O)C(CCCNC(=N)N)NC(=O)C1NC(=O)C2NC(=O)C(NC(=O)C3NC(=O)C4NC(=O)C(Cc5ccc(c(Cl)c5)Oc5cc3cc(c5O)Oc3ccc(cc3Cl)C2O)NC(=O)C(N)c2ccc(O)c(c2)Oc2cc(O)cc4c2)c2ccc(O)c(c2)-c2c(O)cc(O)cc21 (stereo not shown)

>  <MEASURED ENDPOINT>
MIC S. faecalis ATCC 7080

>  <QUANTITY UNIT>
mg/L

>  <MEASURED NUMBER>
1

$$$$
>  <COMPOUND>
CN(C)CCN(C)C(=O)C1NC(=O)C2NC(=O)C(NC(=O)C3NC(=O)C4NC(=O)C(Cc5ccc(c(Cl)c5)Oc5cc3cc(c5O)Oc3ccc(cc3Cl)C2O)NC(=O)C(N)c2ccc(O)c(c2)Oc2cc(O)cc4c2)c2ccc(O)c(c2)-c2c(O)cc(O)cc21 (stereo not shown)

>  <MEASURED ENDPOINT>
MIC S. faecalis ATCC 7080

>  <QUANTITY UNIT>
mg/L

>  <MEASURED NUMBER>
0.12

$$$$
